system-tested: PD-1/PD-L1 interaction (PD-1-Ig / PD-L1-His) (Homo sapiens, UniProt Q9NZQ7)
Construct: hPDL1(18-239)-TVMV-His; TVMV protease site linker (C); made in house; host or cells: HEK293T
Sequence (Q9NZQ7 with tags, fused parts or gaps): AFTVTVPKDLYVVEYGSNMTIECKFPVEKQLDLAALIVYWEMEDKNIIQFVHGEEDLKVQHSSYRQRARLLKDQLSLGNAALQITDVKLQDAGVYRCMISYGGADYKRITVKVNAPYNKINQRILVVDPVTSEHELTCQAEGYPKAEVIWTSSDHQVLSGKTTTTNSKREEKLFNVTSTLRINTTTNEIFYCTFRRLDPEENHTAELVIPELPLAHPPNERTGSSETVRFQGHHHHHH
assay-details: PD-1/PD-L1 Homogenous Time-Resolved Fluorescence (HTRF) binding assay
condition-label: IC50 range class; PD-L1-His 10 nM, PD-1-Ig 20 nM; read-out: Range or IC50
pIC50: −log10 of the molar value.
Would you mind telling me the reported pIC50 of each entry?

Prompt: Which pIC50 is listed for Cc1c(COc2cc(OCc3cncc(C#N)c3)c(CN(CC(C)C)C(CCO)C(=O)O)cc2Cl)cccc1-c1cccc(COc2cc(OCc3cncc(C#N)c3)c(CN(CC(C)C)C(CCO)C(=O)O)cc2Cl)c1C (stereo not drawn) ?
Response: 7.70 to 10.40

Prompt: Item: "Cc1c(COc2cc(OCc3cncc(C#N)c3)c(C(=O)N3CCC(=O)CC3)cc2Cl)cccc1-c1cccc(COc2cc(OCc3cncc(C#N)c3)c(C(=O)N3CCC(=O)CC3)cc2Cl)c1C"
Response: 7.05 to 7.70

Prompt: Repeat with "Cc1c(OCCCN2CCN(CC(=O)NC(C)C)CC2)cccc1-c1cccc(OCCCN2CC[C@@H](O)C2)c1C"
Response: 6.00 to 7.05

Hey, just so you know, these numbers are from patent US10144706B2.
